// values below are pIC50; system is IRAK4 (Homo sapiens (Human), UniProt Q9NWZ3)
Sequence (Q9NWZ3 whole entry): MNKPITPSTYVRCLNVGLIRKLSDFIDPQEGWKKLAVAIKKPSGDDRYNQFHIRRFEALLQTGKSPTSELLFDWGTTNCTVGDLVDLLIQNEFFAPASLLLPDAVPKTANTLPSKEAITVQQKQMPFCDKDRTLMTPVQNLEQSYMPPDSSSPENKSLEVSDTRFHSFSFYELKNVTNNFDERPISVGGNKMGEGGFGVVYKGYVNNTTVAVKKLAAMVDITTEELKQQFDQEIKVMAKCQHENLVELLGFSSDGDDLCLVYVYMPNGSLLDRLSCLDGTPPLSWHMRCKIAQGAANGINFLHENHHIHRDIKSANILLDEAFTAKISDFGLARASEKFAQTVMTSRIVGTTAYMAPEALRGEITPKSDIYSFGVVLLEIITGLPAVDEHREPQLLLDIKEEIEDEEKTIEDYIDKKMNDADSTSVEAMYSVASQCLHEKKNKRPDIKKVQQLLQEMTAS
Answers are plain numbers, as −log10 of the molar value.

Worked cases, answers included:
# query: pIC50 of entry COCCNC(=O)c1cnc2c(c1NC(C)C)Oc1cc(C#N)ccc1O2 [Example 5]
6.82

Likewise for CC(C)Nc1c(C(=O)NCC2(CO)CC2)cnc2c1Oc1cc(C#N)ccc1O2 [Example 11] ?
6.36

Likewise for CC(C)Nc1c(C(=O)NC[C@@H](F)C(C)(C)O)cnc2c1Oc1ccc(C#N)cc1O2 [Example 2] ?
8.07

Likewise for CC(C)Nc1c(C(=O)NCC(C)(C)CO)cnc2c1Oc1cc(C#N)ccc1O2 [Example 7] ?
6.57

Likewise for CC(C)Nc1c(C(=O)N[C@H](C)CCO)cnc2c1Oc1cc(C#N)ccc1O2 [Example 10] ?
6.80

Could you report pIC50 for every entry in the following list?
1. CCOCCNC(=O)c1cnc2c(c1NC(C)C)Oc1cc(C#N)ccc1O2 [Example 4]
2. Cc1cc(CNC(=O)c2cnc3c(c2NC(C)C)Oc2cc(C#N)ccc2O3)on1 [Example 14]

1. 7.09
2. 6.28

====

- Test system: Human whole blood stimulated with a TLR2 agonist (lipoteichoic acid), IL-6 levels
- Protocol Text: IRAK4 Whole Blood Assay
- Format: cell-based
- Condition Parameters: 10 μg/mL lipoteichoic acid for 5 hours
Property: EC50 (nM)
One number for each entry, in nM.

# query: EC50 of entry CC(C)Nc1c(C(=O)NC[C@@H](F)C(C)(C)O)cnc2c1Oc1ccc(C#N)cc1O2
1700
